# Test system: Trichomonas vaginalis
# Assay Text: Antitrichomonal activity against metronidazole-resistant Trichomonas vaginalis ATCC 50143 by trypan blue staining-based cell counting
# Format: functional
Readout Label: MIC
Please state the number and follow it with the unit.

Below: 4 compounds and their reported MIC.
* Cc1ncc([N+](=O)[O-])n1CCOc1ccc(C(=O)/C=C/c2ccc(Br)cc2)cc1 | 6.25 µg/mL
* Cc1ncc([N+](=O)[O-])n1CCOc1ccc(C(=O)/C=C/c2ccccc2)cc1 | 50 µg/mL
* Cc1ncc([N+](=O)[O-])n1CCOc1ccc(C(=O)/C=C/c2cccc(Br)c2)cc1 | 3.12 µg/mL
* Cc1ncc([N+](=O)[O-])n1CCOc1ccc(C(=O)/C=C/c2cc(F)cc(F)c2)cc1 | 3.12 µg/mL

# context switch: different compound, same MIC
Record summary for COc1ccc(/C=C/C(=O)c2ccc(OCCn3c([N+](=O)[O-])cnc3C)cc2)cc1 : reported MIC = 25 µg/mL

###

# System: Trichomonas vaginalis
# Assay Text: Antitrichomonal activity against metronidazole-resistant Trichomonas vaginalis ATCC 50143 by trypan blue staining-based cell counting
# Format: functional
Readout Label: MIC
# output: number + unit

- Cc1ncc([N+](=O)[O-])n1CCOc1ccc(C(=O)/C=C/c2ccc([N+](=O)[O-])cc2)cc1: 6.25 µg/mL
- Cc1ncc([N+](=O)[O-])n1CCOc1ccc(C(=O)/C=C/c2ccc(Cl)cc2)cc1: 6.25 µg/mL
- Cc1ncc([N+](=O)[O-])n1CCOc1ccc(C(=O)/C=C/c2ccc(C(F)(F)F)cc2)cc1: 25 µg/mL
- Cc1ncc([N+](=O)[O-])n1CCOc1ccc(C(=O)/C=C/c2ccc(Cl)cc2Cl)cc1: 12.5 µg/mL
- Cc1ncc([N+](=O)[O-])n1CCOc1ccc(C(=O)/C=C/c2cccc(Cl)c2)cc1: 3.12 µg/mL

// MIC (Trichomonas vaginalis) for Cc1ncc([N+](=O)[O-])n1CCOc1ccc(C(=O)/C=C/c2c(Cl)cccc2Cl)cc1 = 25 µg/mL

Bench note, Trichomonas vaginalis: Cc1ncc([N+](=O)[O-])n1CCOc1ccc(C(=O)/C=C/c2ccc(F)cc2)cc1 , MIC reads 6.25 µg/mL

# value of MIC, Trichomonas vaginalis, item Cc1ncc([N+](=O)[O-])n1CCOc1ccc(C(=O)/C=C/c2cccc(F)c2)cc1 = 100 µg/mL

Note to self: MIC of Cc1ncc([N+](=O)[O-])n1CCOc1ccc(C(=O)/C=C/c2cc(F)ccc2F)cc1 with Trichomonas vaginalis was 6.25 µg/mL

###

# System: Trichomonas vaginalis
# Assay Text: Ratio of MIC for metronidazole-resistant Trichomonas vaginalis ATCC 50143 to metronidazole-susceptible Trichomonas vaginalis clinical isolate
# Type: functional
Readout Label: Ratio
Respond numerically, and do not add a unit to the figure.

Worked set:
• Cc1ncc([N+](=O)[O-])n1CCOc1ccc(C(=O)/C=C/c2ccc([N+](=O)[O-])cc2)cc1 = 2
• Cc1ncc([N+](=O)[O-])n1CCOc1ccc(C(=O)/C=C/c2cccc(Cl)c2)cc1 = 2
• Cc1ncc([N+](=O)[O-])n1CCOc1ccc(C(=O)/C=C/c2cc(F)ccc2F)cc1 = 2
• COc1ccc(/C=C/C(=O)c2ccc(OCCn3c([N+](=O)[O-])cnc3C)cc2)cc1OC = 8
• Cc1ncc([N+](=O)[O-])n1CCOc1ccc(C(=O)/C=C/c2cc(F)cc(F)c2)cc1 = 2
• Cc1ncc([N+](=O)[O-])n1CCOc1ccc(C(=O)/C=C/c2ccc(F)cc2)cc1 = 2

The value of Ratio measured for the compound Cc1ncc([N+](=O)[O-])n1CCO turned out to be 8

The value of Ratio measured for the compound Cc1ncc([N+](=O)[O-])n1CCOc1ccc(C(=O)/C=C/c2ccccc2)cc1 turned out to be 4

Record Cc1ncc([N+](=O)[O-])n1CCOc1ccc(C(=O)/C=C/c2ccc(F)c(F)c2)cc1 . Reported Ratio: 2

###

MIC values, listed per item
# System: Trichomonas vaginalis
# Assay Text: Antitrichomonal activity against metronidazole-resistant Trichomonas vaginalis ATCC 50143 by trypan blue staining-based cell counting
# Assay type: functional
# unit: µg/mL | format: bare number

Completed entries (count: 8):
- Cc1ncc([N+](=O)[O-])n1CCOc1ccc(C(=O)/C=C/c2ccccc2C(F)(F)F)cc1: 25
- Cc1ncc([N+](=O)[O-])n1CCOc1ccc(C(=O)/C=C/c2ccccc2Cl)cc1: 12.5
- Cc1ncc([N+](=O)[O-])n1CCOc1ccc(C(=O)/C=C/c2ccc(F)c(F)c2)cc1: 6.25
- Cc1ccc(/C=C/C(=O)c2ccc(OCCn3c([N+](=O)[O-])cnc3C)cc2)cc1C: 12.5
- Cc1ncc([N+](=O)[O-])n1CCOc1ccc(C(=O)/C=C/c2ccccc2Br)cc1: 6.25
- Cc1ncc([N+](=O)[O-])n1CCOc1ccc(C(=O)/C=C/c2cccc3ccccc23)cc1: 25
- COc1ccc(OC)c(/C=C/C(=O)c2ccc(OCCn3c([N+](=O)[O-])cnc3C)cc2)c1: 12.5
- Cc1ncc([N+](=O)[O-])n1CCO: 12.5

Short answer for COc1ccc(/C=C/C(=O)c2ccc(OCCn3c([N+](=O)[O-])cnc3C)cc2)cc1OC : MIC was 12.5

###

Reported Ratio values follow for various compounds
# System: Trichomonas vaginalis
# Assay Text: Ratio of metronidazole MIC to compound MIC for metronidazole-resistant Trichomonas vaginalis ATCC 50143 by trypan blue staining-based cell counting
# Assay type: functional

As a guide, the following entries are already answered.
- Cc1ncc([N+](=O)[O-])n1CCOc1ccc(C(=O)/C=C/c2cccc(Br)c2)cc1: 4
- Cc1ncc([N+](=O)[O-])n1CCOc1ccc(C(=O)/C=C/c2cc(F)cc(F)c2)cc1: 4
- Cc1ncc([N+](=O)[O-])n1CCOc1ccc(C(=O)/C=C/c2cccc(Cl)c2)cc1: 4

For record Cc1ncc([N+](=O)[O-])n1CCOc1ccc(C(=O)/C=C/c2ccc([N+](=O)[O-])cc2)cc1 the listed Ratio is 2
